# system: human RORγ (Homo sapiens)
# Construct: human, NM_005060.3 and from Ser253 to Lys518; expressed in transfected cells; host or cells: CHO cells (transient co-transfection with pG5-Luc reporter)
# Sequence (P51449 253-518): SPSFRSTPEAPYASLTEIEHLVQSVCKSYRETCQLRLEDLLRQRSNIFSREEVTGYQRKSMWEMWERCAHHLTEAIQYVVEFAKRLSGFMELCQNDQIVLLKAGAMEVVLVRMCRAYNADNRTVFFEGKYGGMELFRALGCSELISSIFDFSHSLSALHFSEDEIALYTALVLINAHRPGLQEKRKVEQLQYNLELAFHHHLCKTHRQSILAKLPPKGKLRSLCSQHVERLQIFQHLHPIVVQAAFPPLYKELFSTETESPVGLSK
# measurement_notes: Luciferase reporter gene assay of inhibitory effect against RORγ transcriptional activity (GAL4-hRORγ plasmid in CHO cells)
# Assay type: cell-based
# experimental_setup: read-out: LUC EC50 (μM) hRORg
readout: EC50

INSERT INTO results (compound, readout, result) VALUES
  ('Cc1ccc(NC(=O)CCc2nnc(C3(O)CC(CC(C)C)C3)n2C2CC2)c(C)c1 (single isomer, unassigned) [Example F-429]', 'EC50', '< 3 µM'),
  ('CC(=O)N1C[C@H](C(=O)Nc2ccc(C)cc2C)[C@@H](c2nnc(C(O)CCC(C)(C)C)n2C2CC2)C1 (single isomer, unassigned) [Example F-349]', 'EC50', '> 3 µM'),
  ('Cc1ccc(NC(=O)C[C@H](CCC(=O)O)c2noc(-c3nnc(CC(C)C)s3)c2C2CC2)c(Cl)c1', 'EC50', '< 3 µM');

###

# system: mouse RORγ (Mus musculus, UniProt P51450)
# Construct: mouse, NM_011281.2 and from Ile251 to Lys516; expressed in transfected cells; host or cells: CHO cells (transient co-transfection with pG5-Luc reporter)
# Sequence (P51450 251-516): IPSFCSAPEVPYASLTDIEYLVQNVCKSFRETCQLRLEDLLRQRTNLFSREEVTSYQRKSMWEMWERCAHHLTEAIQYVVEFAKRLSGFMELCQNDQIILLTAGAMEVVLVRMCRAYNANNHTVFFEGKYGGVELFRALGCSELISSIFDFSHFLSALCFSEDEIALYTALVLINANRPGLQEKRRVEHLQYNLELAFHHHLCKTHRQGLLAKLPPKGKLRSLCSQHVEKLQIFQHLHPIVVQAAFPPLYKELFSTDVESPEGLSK
# measurement_notes: Luciferase reporter gene assay of inhibitory effect against RORγ transcriptional activity (GAL4-mRORγ plasmid in CHO cells)
# Assay type: cell-based
# experimental_setup: read-out: LUC EC50 mRORg
pEC50: −log10 of the molar value.
This listing pairs molecules with measured pEC50.
readout: pEC50

INSERT INTO assay_data (molecule, result) VALUES
  ('Cc1cc(Cl)ccc1NC(=O)C[C@H](CC(C)C)c1nnc(-c2cc(CCC(C)C)on2)n1C1CC1 [Example F-628]', '> 5.52'),
  ('Cc1ccc(NC(=O)[C@H]2CC(F)(F)C[C@@H]2c2nnc([C@H]3C[C@@H](CC(C)C)C3)n2C2CC2)c(C)c1 [Example F-571]', '> 5.52'),
  ('Cc1ccc(NC(=O)CC(CC(=O)N2CC[C@H](O)C2)c2nnc([C@H]3C[C@@H](CC(C)C)C3)n2C2CC2)c(C)c1 (mixture of isomers) [Example F-503]', '< 5.52'),
  ('COc1cc(NC(=O)C[C@H](CCO)c2nnc([C@H]3C[C@@H](CC(C)C)C3)n2C2CC2)ccc1Cl [Example F-520]', '> 5.52'),
  ('Cc1ccc(NC(=O)CCc2noc(C34CC5CC(CC(C5)C3)C4)c2C2CC2)c(Cl)c1 [Example F-734]', '> 5.52'),
  ('CC(=O)N1C[C@@H](C(=O)Nc2ccc(C)cc2C)[C@H](c2nnc(-c3cc(CC(C)C)no3)n2C2CC2)C1 [Example F-507]', '< 5.52'),
  ('CC(=O)N1C[C@H](C(=O)Nc2ccc(C)cc2C)[C@@H](c2nnc(-c3cc(CC(C)C)no3)n2C2CC2)C1 [Example F-506]', '> 5.52'),
  ('CC(C)C[C@H]1C[C@@H](c2nnc([C@@H](CCO)CC(=O)Nc3ccc(C(F)(F)F)cc3C(F)(F)F)n2C2CC2)C1 [Example F-524]', '> 5.52'),
  ('CC(=O)N1C[C@H](C(=O)Nc2ccc(Cl)cc2C)[C@@H](c2nnc(-c3cc(CC(C)C)on3)n2C2CC2)C1 [Example F-613]', '> 5.52'),
  ('Cc1ccc(NC(=O)C[C@H](OCC(C)C)c2nnc([C@H]3C[C@@H](CC(C)C)C3)n2C2CC2)c(C)c1 [Example F-582]', '> 5.52'),
  ('CC(C)C[C@H]1C[C@@H](c2nnc([C@@H](CCO)CC(=O)NCc3ccc(Cl)cc3Cl)n2C2CC2)C1 [Example F-521]', '> 5.52'),
  ('Cc1ccc(NC(=O)C[C@H](CNC(=O)CC#N)c2noc([C@H]3C[C@@H](CC(C)C)C3)c2C2CC2)c(C)c1 [Example F-647]', '> 5.52'),
  ('Cc1ccc(NC(=O)C2CN(CC(=O)O)CC2c2noc([C@H]3C[C@@H](CC(C)(C)C)C3)c2C2CC2)c(Cl)c1 (stereo partly shown) [Example F-687]', '> 5.52');

###

# system: human RORγ (Homo sapiens)
# Construct: human, NM_005060.3 and from Ser253 to Lys518; expressed in transfected cells; host or cells: CHO cells (transient co-transfection with pG5-Luc reporter)
# measurement_notes: Luciferase reporter gene assay of inhibitory effect against RORγ transcriptional activity (GAL4-hRORγ plasmid in CHO cells)
# Type: cell-based
# experimental_setup: read-out: LUC EC50 (μM) hRORg
readout: EC50

INSERT INTO measurements (compound, result) VALUES
  ('Cc1ccc(NC(=O)CC(CC(C)C)c2nnc(CCCC(C)(C)C)n2C2CC2)c(C)c1 (racemic)', '< 3 µM'),
  ('CCCc1ccc(C)c(NC(=O)CCc2nnc(CCC(C)C)n2C2CC2)c1', '> 3 µM'),
  ('Cc1ccc(CNC(=O)CCc2nnc(CCC(C)C)n2C2CC2)cc1', '> 3 µM'),
  ('CC(=O)N1C[C@H](C(=O)Nc2ccc(C)cc2C)[C@@H](c2nnc(CCOC(C)(C)C)n2C2CC2)C1 (racemic)', '> 3 µM'),
  ('CC(=O)N1C[C@@H](C(=O)Nc2ccc(C)cc2C)[C@H](c2nnc(C3CC4(CCCCC4)C3)n2C2CC2)C1', '> 3 µM'),
  ('CC(=O)N[C@@H](CC(=O)Nc1ccc(C)cc1C)c1nnc(CCCC(C)(C)C)n1C1CC1', '< 3 µM'),
  ('Cc1c(Cl)cccc1NC(=O)CCc1nnc(CCC(=O)N(C)C)n1C1CC1', '> 3 µM'),
  ('Cc1ccc(NC(=O)CC(CC(N)=O)c2nnc(CCCC(C)C)n2C2CC2)c(C)c1 (racemic)', '> 3 µM'),
  ('Cc1ccc(NC(=O)CCc2nnc([C@H]3C[C@@H](CC(C)C)C3)n2C2CC2)c(C)c1', '< 3 µM'),
  ('CC(=O)N1C[C@H](C(=O)Nc2ccc(C)cc2C)[C@@H](c2nnc([C@H]3C[C@@H](c4ccccc4)C3)n2C2CC2)C1 (racemic)', '< 3 µM'),
  ('Cc1ccc(NC(=O)CCc2nnc(CCC3CCCCC3)n2CC(F)(F)F)c(C)c1', '< 3 µM'),
  ('Cc1c(F)cccc1NC(=O)CCc1nnc(CCC(C)C)n1C1CC1', '> 3 µM'),
  ('CC(=O)N1C[C@H](C(=O)Nc2ccc(C)cc2C)[C@@H](c2nnc([C@H]3C[C@H](OC(C)C)C3)n2C2CC2)C1 (racemic) [Example F-329]', '> 3 µM'),
  ('Cc1ccc(NC(=O)CC(CCO)c2nnc(CCCC(C)C)n2C2CC2)c(C)c1 (racemic)', '< 3 µM'),
  ('CC(=O)N1C[C@H](C(=O)Nc2ccc(C)cc2C)[C@@H](c2nnc(CCC3CCCCC3)n2C2CC2)C1 [Example F-402]', '< 3 µM');

###

# system: mouse RORγ (Mus musculus, UniProt P51450)
# Construct: mouse, NM_011281.2 and from Ile251 to Lys516; expressed in transfected cells; host or cells: CHO cells (transient co-transfection with pG5-Luc reporter)
# measurement_notes: Luciferase reporter gene assay of inhibitory effect against RORγ transcriptional activity (GAL4-mRORγ plasmid in CHO cells)
# Assay type: cell-based
# experimental_setup: read-out: LUC EC50 (μM) mRORg
readout: EC50

INSERT INTO results (molecule, readout, result) VALUES
  ('Cc1ccc(NC(=O)C[C@@H](Cc2nccs2)c2nnc([C@H]3C[C@@H](CC(C)C)C3)n2C2CC2)c(C)c1', 'EC50', '< 3 µM'),
  ('CC(=O)N1C[C@H](C(=O)Nc2ccc(C)cc2C)[C@@H](c2nnc(C(O)CCC(C)(C)C)n2C2CC2)C1 (single isomer, unassigned) [Example F-349]', 'EC50', '> 3 µM'),
  ('Cc1ccc(NC(=O)CCc2nnc(CCCC(C)C)n2C2CC2)c(C)c1', 'EC50', '< 3 µM'),
  ('Cc1noc(NC(=O)CCc2nnc(CCC(C)C)n2C2CC2)c1C', 'EC50', '> 3 µM'),
  ('CC(=O)N(C)[C@@H](CC(=O)Nc1ccc(C)cc1C)c1nnc(CCCC(C)(C)C)n1C1CC1', 'EC50', '< 3 µM'),
  ('Cc1ccc(NC(=O)C[C@H](CCC(=O)O)c2noc(-c3cc(CCC(C)(C)C)on3)c2C2CC2)c(F)c1', 'EC50', '< 3 µM'),
  ('Cc1ccc(CCNC(=O)CCc2nnc(CCC(C)C)n2C2CC2)cc1', 'EC50', '> 3 µM'),
  ('Cc1ccc(NC(=O)C[C@H](CN2CC(=O)NC2=O)c2nnc([C@H]3C[C@@H](CC(C)C)C3)n2C2CC2)c(C)c1', 'EC50', '< 3 µM'),
  ('Cc1ccc(NC(=O)CC(Cc2ncco2)c2nnc([C@H]3C[C@@H](CC(C)C)C3)n2C2CC2)c(C)c1 (mixture of isomers)', 'EC50', '< 3 µM'),
  ('Cc1ccc(NC(=O)C[C@H](OCCO)c2nnc([C@H]3C[C@@H](CC(C)C)C3)n2C2CC2)c(C)c1', 'EC50', '< 3 µM'),
  ('Cc1ccc(NC(=O)CC(CCO)c2nnc(C(F)(F)CCC(C)(C)C)n2C2CC2)c(C)c1 (racemic)', 'EC50', '< 3 µM'),
  ('Cc1ccc(NC(=O)[C@H]2C(=O)N(C)C[C@@H]2c2nnc(CCCC(C)(C)C)n2C2CC2)c(C)c1', 'EC50', '< 3 µM'),
  ('CCc1ccccc1NC(=O)CCc1nnc(CCC(C)C)n1C1CC1', 'EC50', '> 3 µM'),
  ('CCn1c(CCC(=O)Nc2cc(C)cc(C)c2)nnc1CCC1CCCCC1', 'EC50', '> 3 µM'),
  ('CC(=O)N1C[C@H](C(=O)Nc2ccc(C)cc2C)[C@@H](c2nnc([C@H]3C[C@@H](OC(C)(C)C)C3)n2C2CC2)C1 (racemic)', 'EC50', '< 3 µM'),
  ('Cc1ccc(NC(=O)C[C@H](CCC(=O)O)c2noc(-c3cc(CC(C)C)on3)c2C2CC2)c(Cl)c1', 'EC50', '< 3 µM'),
  ('Cc1ccc(NC(=O)C[C@@H](C[C@H](O)CO)c2nnc(CCCC(C)C)n2C2CC2)c(C)c1', 'EC50', '> 3 µM'),
  ('Cc1cccc(NC(=O)CCc2nnc(CCCC(C)C)n2C2CC2)c1C', 'EC50', '< 3 µM'),
  ('Cc1ccc(NC(=O)CCc2nnc(CCC(C)C)n2C2CC2)cc1', 'EC50', '> 3 µM'),
  ('CC(C)CCc1nnc(CCC(=O)NCc2ccccc2C(F)(F)F)n1C1CC1', 'EC50', '> 3 µM'),
  ('CCOC(=O)C(CC(=O)Nc1cccc(Cl)c1C)c1nnc(CCC(C)C)n1C1CC1 (racemic)', 'EC50', '> 3 µM'),
  ('COc1ccc(F)cc1CNC(=O)CCc1nnc(CCC(C)C)n1C1CC1', 'EC50', '> 3 µM'),
  ('Cc1ccc(NC(=O)C[C@H](CCC(=O)O)c2noc(-c3cc(CCC(C)C)on3)c2C(F)(F)F)c(F)c1', 'EC50', '< 3 µM'),
  ('Cc1ccc(NC(=O)C[C@H](CCC(=O)O)c2noc(-c3ncc(CC(C)C)s3)c2C2CC2)c(Cl)c1', 'EC50', '< 3 µM'),
  ('CCn1c(CCC(=O)NCc2ccccc2)nnc1CCC1CCCCC1', 'EC50', '> 3 µM'),
  ('Cc1c(Cl)cccc1NC(=O)CCc1nnc(CCn2cccn2)n1C1CC1', 'EC50', '> 3 µM'),
  ('Cc1ccc(NC(=O)C(C)C(CCO)c2nnc([C@H]3C[C@@H](CC(C)C)C3)n2C2CC2)c(C)c1 (single isomer, unassigned) [Example F-490]', 'EC50', '> 3 µM'),
  ('Cc1ccc(NC(=O)C[C@H](CCO)c2nnc([C@H]3C[C@@H](CC(C)C)C3)n2C2CC2)c(C)c1', 'EC50', '< 3 µM'),
  ('Cc1c(Cl)cccc1NC(=O)CC(O)c1nnc(CCC(C)C)n1C1CC1 (racemic)', 'EC50', '< 3 µM'),
  ('CC(=O)N1C[C@@H](C(=O)Nc2ccc(C)cc2C)[C@H](c2nnc([C@H]3C[C@@H](CC(C)(C)C)C3)n2C2CC2)C1', 'EC50', '< 3 µM');

Source listed as patent US20160137639A1.
